- Subject Of Test: panel of more than 300 wild-type and mutant kinases (313 kinase panel) (Homo sapiens)
- Method Description: Kinase profiling in a biochemical assay panel (mobility shift assays and ELISA), %-inhibition at 1 μM; selectivity entropy
- Assay Conditions: kinase TNK1; 1 μM
Rule: %-inhibition of TNK1 under 50% gives NO, otherwise YES.

CNC(=O)c1cc(Oc2ccc(NC(=O)Nc3ccc(Cl)c(C(F)(F)F)c3)c(F)c2)ccn1 [regorafenib]
NO
CC(C)(C)c1nc(-c2cccc(NS(=O)(=O)c3c(F)cccc3F)c2F)c(-c2ccnc(N)n2)s1 [dabrafenib]
YES
Cc1ccc(C(=O)Nc2ccc(CN3CCN(C)CC3)c(C(F)(F)F)c2)cc1C#Cc1cnc2cccnn12 [ponatinib]
YES
C[C@@H](Oc1cc(-c2cnn(C3CCNCC3)c2)cnc1N)c1c(Cl)ccc(F)c1Cl [crizotinib]
NO
Cc1nc(Nc2ncc(C(=O)Nc3c(C)cccc3Cl)s2)cc(N2CCN(CCO)CC2)n1 [dasatinib]
NO
CS(=O)(=O)CCNCc1ccc(-c2ccc3ncnc(Nc4ccc(OCc5cccc(F)c5)c(Cl)c4)c3c2)o1 [lapatinib]
NO
CO[C@H]1C[C@@H]2CC[C@@H](C)[C@@](O)(O2)C(=O)C(=O)N2CCCC[C@H]2C(=O)O[C@H]([C@H](C)C[C@@H]2CC[C@@H](OC(=O)C(C)(CO)CO)[C@H](OC)C2)CC(=O)[C@H](C)/C=C(\C)[C@@H](O)[C@@H](OC)C(=O)[C@H](C)C[C@H](C)/C=C/C=C/C=C/1C [temsirolimus]
NO

* * *

- Tested on: forty-four human cancer cell lines
- Method Description: Cell proliferation assay (ATPlite, 72 hours) in the 44 cell line Oncolines panel
- Type: cell-based
- Assay Conditions: Homo sapiens, CCRF-CEM, read-out: cell panel IC50, CCRF-CEM
pIC50: −log10 of the molar value.
Given measured pIC50, output true (1) if it is greater than or equal to 5 and false (0) if not.

O=S(=O)(c1cccc2cnccc12)N1CCCNCC1 [fasudil]
false (0)
N#CC[C@H](C1CCCC1)n1cc(-c2ncnc3[nH]ccc23)cn1 [ruxolitinib]
false (0)
COc1cc2nccc(Oc3ccc(NC(=O)C4(C(=O)Nc5ccc(F)cc5)CC4)cc3)c2cc1OC [cabozantinib]
false (0)
Cc1cn(-c2cc(NC(=O)c3ccc(C)c(Nc4nccc(-c5cccnc5)n4)c3)cc(C(F)(F)F)c2)cn1 [nilotinib]
true (1)
C[C@@H](Oc1cc(-c2cnn(C3CCNCC3)c2)cnc1N)c1c(Cl)ccc(F)c1Cl [crizotinib]
true (1)

* * *

- Subject Of Test: panel of more than 300 wild-type and mutant kinases (313 kinase panel) (Homo sapiens, UniProt P53779)
- Sequence (P53779 whole entry, change not shown): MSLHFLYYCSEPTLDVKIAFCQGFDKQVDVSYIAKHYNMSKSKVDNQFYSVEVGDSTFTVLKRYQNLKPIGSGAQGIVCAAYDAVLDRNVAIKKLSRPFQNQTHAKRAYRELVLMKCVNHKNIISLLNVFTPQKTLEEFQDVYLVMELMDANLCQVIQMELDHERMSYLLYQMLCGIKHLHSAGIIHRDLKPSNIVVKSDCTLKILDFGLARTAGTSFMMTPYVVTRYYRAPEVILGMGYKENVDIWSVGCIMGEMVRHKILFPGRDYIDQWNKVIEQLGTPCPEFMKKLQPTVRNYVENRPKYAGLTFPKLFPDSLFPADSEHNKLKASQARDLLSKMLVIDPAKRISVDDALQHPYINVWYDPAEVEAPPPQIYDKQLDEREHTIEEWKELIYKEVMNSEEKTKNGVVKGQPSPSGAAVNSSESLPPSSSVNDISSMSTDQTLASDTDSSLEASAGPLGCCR
- Method Description: Kinase profiling in a biochemical assay panel (mobility shift assays and ELISA), %-inhibition at 1 μM; selectivity entropy
- Assay Conditions: kinase JNK3; compound at 1 μM
Assay Metric: %-inhibition of JNK3 (%)

O=S(=O)(c1cccc2cnccc12)N1CCCNCC1
-4
CS(=O)(=O)CCNCc1ccc(-c2ccc3ncnc(Nc4ccc(OCc5cccc(F)c5)c(Cl)c4)c3c2)o1
11
CNC(=O)c1cc(Oc2ccc(NC(=O)Nc3ccc(Cl)c(C(F)(F)F)c3)c(F)c2)ccn1
5
CO[C@H]1C[C@@H]2CC[C@@H](C)[C@@](O)(O2)C(=O)C(=O)N2CCCC[C@H]2C(=O)O[C@H]([C@H](C)C[C@@H]2CC[C@@H](OC(=O)C(C)(CO)CO)[C@H](OC)C2)CC(=O)[C@H](C)/C=C(\C)[C@@H](O)[C@@H](OC)C(=O)[C@H](C)C[C@H](C)/C=C/C=C/C=C/1C
-1.22
C[C@@H](Oc1cc(-c2cnn(C3CCNCC3)c2)cnc1N)c1c(Cl)ccc(F)c1Cl
-1.87
COc1cc2nccc(Oc3ccc(NC(=O)C4(C(=O)Nc5ccc(F)cc5)CC4)cc3)c2cc1OC [cabozantinib]
-2

Data origin, for the record: paper PMC3961306
